- assay_comment: absolute recovery over vacuum-assisted evaporative concentration; higher = better recovery
- conditions: wastewater effluent; enrichment method: VEC
Answer each item with its documented absolute recovery.

Known absolute recovery results, listed for orientation:
O=C(NCCN1CCOCC1)c1ccc(Cl)cc1 [Moclobemid] ... 105%
NC(=O)N=C1SCCN1Cc1ccc(Cl)nc1 [Thiacloprid-amide] ... 106%
CC=C1[NH+](C)C(C)CC1(c1ccccc1)c1ccccc1 (centres undefined) [EDDP (=2-Ethylidene-1-5-dimethyl-3-3-diphenylpyrrolidin)] ... 95%

Next up:
Query: absolute recovery; subject: COc1cc(Cc2c[nH+]c(N)nc2N)cc(OC)c1OC [Trimethoprim]
107%

* * *

- assay_comment: absolute recovery over mixed-bed multilayer solid-phase extraction; higher = better recovery
- conditions: wastewater influent; enrichment method: SPE
Answer each item with its documented absolute recovery.
Answers are plain numbers, in %.

Known absolute recovery results, listed for orientation:
NS(=O)(=O)c1cc2c(cc1Cl)NCNS2(=O)=O [Hydrochlorothiazid] ... 91.7
CC(C)=NOCCOC(=O)C(C)Oc1ccc(Oc2cnc3cc(Cl)ccc3n2)cc1 (stereo unspecified) [Propaquizafop] ... 80.9
C[NH+]1C2CCC1CC(OC(=O)C(CO)c1ccccc1)C2 (stereo unspecified) [Atropine] ... 91.5

State the recorded absolute recovery for every item in the following list.
1. Nc1c(Cl)c(F)nc(OCC(=O)[O-])c1Cl [Fluroxypyr (free acid)]
2. Cc1ncc2n1-c1ccc(Cl)cc1C(c1ccccc1F)=NC2 [Midazolam]
3. CCNc1nc(Cl)nc(NCC)n1 [Simazin]

1. 89.2
2. 83
3. 94.9

* * *

- assay_comment: absolute recovery over mixed-bed multilayer solid-phase extraction; higher = better recovery
- conditions: surface water; enrichment method: SPE
Answer each item with its documented absolute recovery.
Give bare numbers, in %.

Known absolute recovery results, listed for orientation:
C[NH+]1CCC23c4c5ccc(O)c4OC2C(O)C=CC3C1C5 (centres undefined) ... 91.3
CNC(=C[N+](=O)[O-])NCCSCc1ccc(C[N+](C)(C)[O-])o1 ... 69.4
CC([NH3+])C12CC3CC(CC(C3)C1)C2 (centres undefined) ... 76.1

Next up:
Query: absolute recovery; subject: CCCOCC(=Nc1ccc(Cl)cc1C(F)(F)F)n1ccnc1
104

* * *

- assay_comment: absolute recovery over mixed-bed multilayer solid-phase extraction; higher = better recovery
- conditions: wastewater influent; enrichment method: SPE
reported_endpoint: absolute recovery (%)
Numbers only, in %.

Known absolute recovery results, listed for orientation:
Cc1cccc(C)c1OCC(C)[NH3+] (stereo not drawn) ... 80.7
CC(C)(C(=O)[O-])c1ccc(C(O)CCC[NH+]2CCC(C(O)(c3ccccc3)c3ccccc3)CC2)cc1 (stereo not drawn) [Fexofenadin] ... 101

Next up:
Query: absolute recovery; subject: CSc1nnc(C(C)(C)C)c(=O)n1N
95.2

* * *

- assay_comment: absolute recovery over mixed-bed multilayer solid-phase extraction; higher = better recovery
- conditions: wastewater influent; enrichment method: SPE
Answer each item with its documented absolute recovery.

Known absolute recovery results, listed for orientation:
Cc1ccc(NC(=O)N(C)C)cc1Cl ... 94.8%
CCCCc1c(C)nc(NCC)nc1OS(=O)(=O)N(C)C [Bupirimate] ... 74.8%
CCNc1nc(NCC)nc(OC)n1 ... 88.7%
Clc1cccc(N2CC[NH2+]CC2)c1 ... 79.3%
CS(=O)(=O)c1cc(C(F)(F)F)ccc1C(=O)c1cnoc1C1CC1 ... 35.1%
CON=C(C1=NOCCO1)c1ccccc1Oc1ncnc(Oc2ccccc2Cl)c1F ... 83%
N#Cc1cc(Br)c([O-])c(Br)c1 ... 108%

Query: absolute recovery; subject: CCCCCOC(=O)[N-]c1nc(=O)n(C2OC(C)C(O)C2O)cc1F (stereo not drawn)
96.3%

Origin of the recorded values: the supplement of paper PMC6470124
